Molecular target: T1, Rb^P S612P (human, UniProt P06400 380-788, S612P)
T1 construct: also called variant 39
T1 sequence (looked up): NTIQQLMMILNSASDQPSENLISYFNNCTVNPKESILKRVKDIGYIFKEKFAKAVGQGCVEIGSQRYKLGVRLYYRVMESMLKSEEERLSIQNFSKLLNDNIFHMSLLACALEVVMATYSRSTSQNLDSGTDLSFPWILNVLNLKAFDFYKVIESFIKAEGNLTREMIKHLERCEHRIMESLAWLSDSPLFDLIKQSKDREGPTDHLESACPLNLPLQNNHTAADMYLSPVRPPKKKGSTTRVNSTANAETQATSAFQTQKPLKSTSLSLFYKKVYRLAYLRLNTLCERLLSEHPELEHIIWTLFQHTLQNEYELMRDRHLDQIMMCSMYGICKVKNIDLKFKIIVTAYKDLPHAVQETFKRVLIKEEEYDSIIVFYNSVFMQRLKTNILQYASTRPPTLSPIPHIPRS
Assay: fluorescence polarisation; 25 °C; unlabeled Rb^P titrated against 1.5 nM TMR-E2F1^TD or 7.5 nM TMR-E7^LxCxE; 25 mM Tris pH 8.0, 200 mM NaCl, 1 mM DTT, 0.1% Tween-20; 2 min incubation; quadratic fit; apparent Kd for the variants, Kd for WT
Settings: both partners purified
No end group written: not given here. TMR = tetramethyl rhodamine dye
ASSAY READOUT: Kd
Respond with the figure and its unit, in that order.

So for DLYCYEQLN (also: TMR label, position not given here, source: synthetic peptide, bought: GenScript) [TMR-E7^LxCxE, LxCxE peptide of the E7 oncoprotein from HPV] , the logged Kd turned out to be 7 nM

Memo: {TMR}-GEGIRDLFDCDFGDLTPLD (also called E2F^TD; source: synthetic peptide, bought: GenScript) [TMR-E2F1^TD, peptide of the E2F1 transactivation domain] , reported Kd: 32 nM
